- target.entity: CDK9/CycT (Homo sapiens, UniProt P50750)
- Sequence (P50750 whole entry): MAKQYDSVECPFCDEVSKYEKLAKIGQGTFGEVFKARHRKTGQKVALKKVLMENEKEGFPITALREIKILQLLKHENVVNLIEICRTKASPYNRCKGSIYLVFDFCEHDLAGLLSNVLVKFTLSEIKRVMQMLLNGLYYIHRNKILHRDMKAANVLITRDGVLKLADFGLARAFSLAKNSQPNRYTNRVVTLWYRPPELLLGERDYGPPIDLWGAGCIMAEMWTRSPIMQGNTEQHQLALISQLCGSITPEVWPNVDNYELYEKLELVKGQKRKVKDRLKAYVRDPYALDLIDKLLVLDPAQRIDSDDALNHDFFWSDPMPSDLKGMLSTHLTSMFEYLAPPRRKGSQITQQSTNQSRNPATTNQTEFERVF
- Sequence (O60563 whole entry partner): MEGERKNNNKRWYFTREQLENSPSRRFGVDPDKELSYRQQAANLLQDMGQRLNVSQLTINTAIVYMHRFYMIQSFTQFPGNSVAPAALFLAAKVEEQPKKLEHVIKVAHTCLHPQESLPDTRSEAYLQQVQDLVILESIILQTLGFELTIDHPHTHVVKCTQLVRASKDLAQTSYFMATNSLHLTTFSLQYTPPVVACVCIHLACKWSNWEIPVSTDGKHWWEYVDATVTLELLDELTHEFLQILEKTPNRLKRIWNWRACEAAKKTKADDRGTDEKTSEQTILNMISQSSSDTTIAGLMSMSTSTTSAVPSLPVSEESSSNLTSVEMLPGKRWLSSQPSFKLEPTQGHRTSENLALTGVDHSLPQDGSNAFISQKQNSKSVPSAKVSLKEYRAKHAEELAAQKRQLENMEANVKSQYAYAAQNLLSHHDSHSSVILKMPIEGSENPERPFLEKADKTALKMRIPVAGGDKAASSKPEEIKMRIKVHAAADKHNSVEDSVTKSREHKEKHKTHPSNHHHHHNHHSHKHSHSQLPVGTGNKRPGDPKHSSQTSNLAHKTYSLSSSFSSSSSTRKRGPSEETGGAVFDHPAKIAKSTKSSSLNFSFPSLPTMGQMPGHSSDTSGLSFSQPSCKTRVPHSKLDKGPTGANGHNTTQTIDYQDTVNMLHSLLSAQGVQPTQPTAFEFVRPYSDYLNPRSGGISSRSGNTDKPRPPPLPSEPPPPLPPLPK
- assay.method.text: CDK9/CycT inhibition (Tables A1, A2)

compound: C=CC(=O)N[C@H]1CC[C@H](Nc2cc(N3CCCC[C@H]3CCO)nc3c(CC)cnn23)CC1 [MFH-1-175-1]
target.entity: CDK9/CycT (Homo sapiens, UniProt P50750)
IC50: 0.0482 µM
--
compound: C=CC(=O)Nc1ccc(C(=O)Nc2cccc(Nc3cc(N[C@H]4CC[C@H](N(C)C)CC4)nc4c(C(C)C)cnn34)c2)cc1 [SB1-E-25]
target.entity: CDK9/CycT (Homo sapiens, UniProt P50750)
IC50: 0.387 µM
--
compound: C=CC(=O)Nc1ccc(C(=O)N2CCCC(Nc3cc(N4CCCC(N)C4)nc4c(CC)cnn34)C2)cc1 (stereo not drawn) [THZ-4-141-1]
target.entity: CDK9/CycT (Homo sapiens, UniProt P50750)
IC50: 3.57 µM
--
compound: C=CC(=O)NCc1cccc(Nc2nc(N[C@H]3CC[C@H](N(C)C)CC3)nc3c2ncn3C(C)C)c1 [SB1-E-16]
target.entity: CDK9/CycT (Homo sapiens, UniProt P50750)
IC50: 0.116 µM
--
compound: C=CC(=O)Nc1cccc(Nc2nc(N3CCCCC3CCO)nc3c2ncn3C(C)C)c1 (stereo not drawn) [THZ-4-134-1]
target.entity: CDK9/CycT (Homo sapiens, UniProt P50750)
IC50: 0.379 µM
--
compound: C=CC(=O)NC1CCCC(Nc2nc(N[C@H]3CC[C@H](N(C)C)CC3)nc3c(CC)cnn23)C1 (stereo partly drawn) [MFH-2-78-1]
target.entity: CDK9/CycT (Homo sapiens, UniProt P50750)
IC50: 0.0687 µM
--
compound: C=CC(=O)Nc1cccc(Nc2nc(N[C@H]3CC[C@H](N(C)C)CC3)nc3c(CC)cnn23)c1 [SB1-E-17]
target.entity: CDK9/CycT (Homo sapiens, UniProt P50750)
IC50: 0.171 µM
--
compound: CC(C)n1cnc2c(Nc3cccc(NC(=O)c4ccc(NC(=O)/C=C/CN(C)C)cc4)c3)nc(N3CCCC(N)C3)nc21 (stereo not drawn) [THZ-4-119-1]
target.entity: CDK9/CycT (Homo sapiens, UniProt P50750)
IC50: 0.519 µM
--
compound: C=CC(=O)Nc1cccc(Nc2cc(N3CCCC(N)C3)nc3c(CC)cnn23)c1 (stereo not drawn) [MFH-3-140-1]
target.entity: CDK9/CycT (Homo sapiens, UniProt P50750)
IC50: 0.465 µM
--
compound: C=CC(=O)NC1CCCC(Nc2nc(N[C@H]3CC[C@H](N(C)C)CC3)nc3c2ncn3C(C)C)C1 (stereo partly drawn) [SB1-E-15]
target.entity: CDK9/CycT (Homo sapiens, UniProt P50750)
IC50: 0.0589 µM
--
compound: C=CC(=O)Nc1ccc(C(=O)Nc2cccc(Nc3nc(N[C@H]4CC[C@H](N(C)C)CC4)nc4c3ncn4C(C)C)c2)cc1 [THZ-5-38-1]
target.entity: CDK9/CycT (Homo sapiens, UniProt P50750)
IC50: 0.22 µM
--
compound: C=CC(=O)Nc1cccc(Nc2cc(N3CCCC[C@@H]3CCO)nc3c(CC)cnn23)c1 [MFH-1-143-1]
target.entity: CDK9/CycT (Homo sapiens, UniProt P50750)
IC50: 0.859 µM
--
compound: C=CC(=O)Nc1cccc(Nc2cc(N3CCCC[C@H]3CCO)nc3c(CC)cnn23)c1 [MFH-1-141-1]
target.entity: CDK9/CycT (Homo sapiens, UniProt P50750)
IC50: 0.0239 µM
--
compound: CCc1cnn2c(Nc3cccc(NC(=O)c4ccc(NC(=O)/C=C/CN(C)C)cc4)c3)cc(N3CCCC(N)C3)nc12 (stereo not drawn) [THZ-4-128-1]
target.entity: CDK9/CycT (Homo sapiens, UniProt P50750)
IC50: 0.0734 µM
--
compound: C=CC(=O)Nc1cccc(Nc2cc(N[C@H]3CC[C@H](N(C)C)CC3)nc3c(CC)cnn23)c1 [SB1-E-21]
target.entity: CDK9/CycT (Homo sapiens, UniProt P50750)
IC50: 0.226 µM

----------
- target.entity: CDK2/CycA (Homo sapiens, UniProt P24941)
- assay.method.text: CDK2/CycA inhibition (Tables A1, A2)
pIC50: −log10 of the molar value.
property.measured: pIC50

molecule: C=CC(=O)Nc1ccc(C(=O)Nc2cccc(Nc3cc(N[C@H]4CC[C@H](N(C)C)CC4)nc4c(C(C)C)cnn34)c2)cc1
reported.relation: =
reported.value: 4.48

molecule: C=CC(=O)Nc1ccc(C(=O)Nc2cccc(Nc3nc(N4CCCCC4CCO)nc4c(CC)cnn34)c2)cc1 (stereo not shown)
reported.relation: =
reported.value: 6.53

molecule: C=CC(=O)Nc1ccc(C(=O)Nc2cccc(Nc3cc(N[C@H]4CC[C@H](N(C)C)CC4)nc4c(CC)cnn34)c2)cc1
reported.relation: =
reported.value: 4.55

molecule: C=CC(=O)Nc1cccc(CNc2cc(N3CCCC[C@@H]3CCO)nc3c(CC)cnn23)c1
reported.relation: =
reported.value: 5.82

molecule: C=CC(=O)Nc1cccc(Nc2cc(N3CCCC[C@@H]3CCO)nc3c(CC)cnn23)c1
reported.relation: <
reported.value: 5.00

molecule: C=CC(=O)Nc1cccc(Nc2nc(N3CCCCC3CCO)nc3c(CC)cnn23)c1 (stereo not shown)
reported.relation: =
reported.value: 7.82

molecule: C=CC(=O)Nc1cccc(Nc2cc(N[C@H]3CC[C@H](N(C)C)CC3)nc3c(C(C)C)cnn23)c1
reported.relation: =
reported.value: 6.03

molecule: CCc1cnn2c(Nc3cccc(NC(=O)c4ccc(NC(=O)/C=C/CN(C)C)cc4)c3)cc(N3CCCC(N)C3)nc12 (stereo not shown)
reported.relation: =
reported.value: 4.77

molecule: C=CC(=O)N[C@H]1CC[C@@H](Nc2cc(N3CCCC[C@H]3CCO)nc3c(CC)cnn23)CC1
reported.relation: =
reported.value: 5.41

molecule: C=CC(=O)Nc1cccc(Nc2nc(N3CCCCC3CCO)nc3c2ncn3C(C)C)c1 (stereo not shown)
reported.relation: =
reported.value: 6.79

molecule: C=CC(=O)NC1CCCC(Nc2nc(N[C@H]3CC[C@H](N(C)C)CC3)nc3c2ncn3C(C)C)C1 (stereo partly shown)
reported.relation: =
reported.value: 5.83

molecule: C=CC(=O)NCc1cccc(Nc2nc(N[C@H]3CC[C@H](N(C)C)CC3)nc3c2ncn3C(C)C)c1
reported.relation: =
reported.value: 7.52

molecule: C=CC(=O)Nc1cccc(Nc2cc(N3CCCC[C@H]3CCO)nc3c(CC)cnn23)c1
reported.relation: =
reported.value: 6.03

molecule: C=CC(=O)Nc1cccc(Nc2nc(N3CCCC[C@H]3CCO)nc3c(CC)cnn23)c1
reported.relation: =
reported.value: 7.27

molecule: C=CC(=O)Nc1cccc(Nc2cc(N[C@H]3CC[C@H](N(C)C)CC3)nc3c(CC)cnn23)c1
reported.relation: =
reported.value: 5.91

molecule: C=CC(=O)Nc1cccc(Nc2nc(N[C@H]3CC[C@H](N(C)C)CC3)nc3c(CC)cnn23)c1
reported.relation: =
reported.value: 6.61

----------
Examples of compounds with documented log10(IC50) follow.
- target.entity: CDK2/CycA (Homo sapiens, UniProt P24941)
- assay.method.text: CDK2/CycA inhibition (Tables A1, A2)
property.measured: log10(IC50) (log10 of the value in nM)

compound: C=CC(=O)Nc1cccc(Nc2cc(N3CCCC(N)C3)nc3c(CC)cnn23)c1 (stereo not shown) [MFH-3-140-1]
log10(IC50): 3.62

compound: C=CC(=O)Nc1cccc(Nc2nc(N[C@H]3CC[C@@H](N(C)C)CC3)nc3c2ncn3C(C)C)c1 [E-1(SB1-E-14)]
log10(IC50): 2.87

compound: C=CC(=O)N[C@H]1CC[C@H](Nc2cc(N3CCCC[C@H]3CCO)nc3c(CC)cnn23)CC1 [MFH-1-175-1]
log10(IC50): 3.03

compound: C=CC(=O)Nc1ccc(C(=O)Nc2cccc(Nc3nc(N4CCCCC4CCO)nc4c3ncn4C(C)C)c2)cc1 (stereo not shown) [THZ-4-124-1]
log10(IC50): 2.99

compound: C=CC(=O)Nc1ccc(C(=O)N2CCCC(Nc3cc(NC4CCC(N(C)C)CC4)nc4c(CC)cnn34)C2)cc1 (stereo not shown) [THZ-4-148-1]
log10(IC50): 3.85

compound: C=CC(=O)Nc1cccc(CNc2cc(N3CCCC[C@H]3CCO)nc3c(CC)cnn23)c1 [MFH-1-49-1]
log10(IC50): 1.44

compound: C=CC(=O)Nc1ccc(C(=O)Nc2cccc(Nc3cc(N4CCCCC4CCO)nc4c(CC)cnn34)c2)cc1 (stereo not shown) [SB1-E-24]
log10(IC50): 3.10
